# System: Pseudomonas aeruginosa ATCC 33359 (PA)
# ASSAY: MIC broth microdilution
# Type: cell-based
# EXPERIMENTAL_SETUP: ATCC33359
Quick list: MIC per entry.

Consider the worked cases shown below.
Cc1cc(-c2[nH]c(=S)[nH]c2-c2ccc3c(c2)OCCO3)ccn1	> 100 µM
Cc1cc(-c2nc(N)[nH]c2-c2ccc(Cl)cc2)ccn1	> 100 µM
Cc1cc(-c2[nH]c(N)nc2-c2ccc3c(c2)CCO3)ccn1	> 100 µM

Item under review: COCCN1CCOc2ccc(-c3nc(N)[nH]c3-c3ccnc(C)c3)cc21 . Reported MIC?
> 100 µM

Now consider CCOc1ccc(-c2[nH]c(N)nc2-c2ccnc(C)c2)cc1F and answer again.
> 100 µM

====

Quick list: MIC per entry.
# Test system: K. pneumoniae H154680676 (KP5)

Consider the worked cases shown below.
Cc1cc(-c2[nH]c(N)nc2-c2cc(F)c3c(c2)OCCO3)ccn1	≤ 1 µM
Cc1cc(-c2[nH]c(N)nc2-c2ccc3c(c2)N(C(C)C)CCO3)ccn1	≤ 1 µM
COCCN1CCOc2ccc(-c3nc(N)[nH]c3-c3ccnc(C)c3)cc21	1 to 10 µM

Item under review: Cc1cc(-c2[nH]c(N)nc2-c2ccc3c(c2)OCCO3)ccn1 . Reported MIC?
≤ 1 µM

Now consider Cc1cc(-c2[nH]c(N)nc2-c2ccc3c(c2)N(CC2CC2)CCO3)ccn1 and answer again.
≤ 1 µM

Now consider Nc1cc(-c2[nH]c(N)nc2-c2ccc(OCc3ccc(F)cc3)cc2)ccn1 and answer again.
≤ 1 µM

====

Values of MIC reported for K. pneumoniae H154020667 (KP6) appear below.

Cc1cc(-c2[nH]c(C)nc2-c2ccc3c(c2)OCCO3)ccn1	1 to 10 µM
Cc1cc(-c2[nH]c(N)nc2-c2ccc3c(c2)N(S(C)(=O)=O)CCO3)ccn1	1 to 10 µM
Nc1cc(-c2[nH]c(N)nc2-c2ccc3c(c2)OCCO3)ccn1	1 to 10 µM

Item under review: COc1ncc(-c2nc(N)[nH]c2-c2ccnc(C)c2)cc1F . Reported MIC?
1 to 10 µM

Now consider Cc1cc(-c2[nH]c(N)nc2-c2ccc3c(c2)NCCO3)ccn1 and answer again.
≤ 1 µM

Now consider Cc1cc(-c2[nH]c(N)nc2-c2ccc3c(c2)N(C(C)C)CCO3)ccn1 and answer again.
≤ 1 µM

Now consider Cc1cc(-c2[nH]c(N)nc2-c2ccc(OCc3ccc(F)cc3)nc2)ccn1 and answer again.
≤ 1 µM

====

# Test system: Salmonella typhimurium XNAA5 (St)
QUANTITY_NAME: MIC

COc1ccc(-c2[nH]c(N)nc2-c2ccnc(C)c2)cc1 [Example 21]	> 100 µM
Cc1cc(-c2[nH]c(N)nc2-c2ccc(OCc3ccc(F)cc3)cc2)ccn1 [Example 19]	≤ 1 µM
Cc1cc(-c2[nH]c(N)nc2-c2ccc(OCc3ccc(F)cc3)nc2)ccn1 [Example 28]	≤ 1 µM
Cc1cc(-c2nc(N)[nH]c2-c2ccc(OCc3ccc(F)cc3)c(F)c2)ccn1 [Example 16]	≤ 1 µM
Cc1cc(-c2[nH]c(N)nc2-c2ccc3c(c2)OCCO3)ccn1 [Example 23]	≤ 1 µM

API: the following record is the query input.
Item under review: Cc1cc(-c2[nH]c(N)nc2-c2ccc3c(c2)NCCO3)ccn1 [Example 27] . Reported MIC?
≤ 1 µM
